Origin of values: patent US20210115426A1

- target_or_test_system: amyloid β1-42 (Aβ1-42) (UniProt P05067 672-713)
- Sequence (P05067 672-713 limits assumed): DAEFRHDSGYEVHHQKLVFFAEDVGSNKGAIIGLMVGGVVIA
- assay_details: cell-based or functional assay
measured_metric: IC50 of inhibition of Aβ1-42 fibrillation (Thioflavin T fluorescence) (nM)
Response body: numeric value in nM, unit text excluded.

binder	result
GTLCTVAGWGRVSMRRGTRTLREVQL [CG-derived mutant peptide CG119-144 D137R]	3100
cationic antimicrobial protein of 37 kDa (CAP37), full-length (enzyme, human, UniProt P20160 27-248, looked up) IVGGRKARPRQFPFLASIQNQGRHFCGGALIHARFVMTAASCFQSQNPGVSTVVLGAYDLRRRERQSRQTFSISSMSENGYDPQQNLNDLMLLQLDREANLTSSVTILPLPLQNATVEAGTRCQVAGWGSQRSGGRLSRFPRFVNVTVTPEDQCRPNNVCTGVLTRRGGICNGDGGTPLVCEGLAHGVASFSLGPCGRGPDFFTRVALFRDWIDGVLNNPGP	876

Inquiry: Record request: IC50 of inhibition of Aβ1-42 fibrillation (Thioflavin T fluorescence) value, item cathepsin G (CG), full-length (enzyme, human, UniProt P08311 21-244, looked up) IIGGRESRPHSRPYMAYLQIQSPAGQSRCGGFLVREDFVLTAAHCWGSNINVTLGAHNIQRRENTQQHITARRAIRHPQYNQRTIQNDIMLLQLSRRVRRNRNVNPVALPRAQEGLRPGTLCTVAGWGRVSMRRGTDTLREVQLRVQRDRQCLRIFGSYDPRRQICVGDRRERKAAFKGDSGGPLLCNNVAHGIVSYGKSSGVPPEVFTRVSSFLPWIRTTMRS
Reply text: 3.8
